Numbers sourced from patent US7056947B2.

Attribute: kobs/[I] papain
- Target Desc: UniProt P00784
- Sequence (P00784 134-345): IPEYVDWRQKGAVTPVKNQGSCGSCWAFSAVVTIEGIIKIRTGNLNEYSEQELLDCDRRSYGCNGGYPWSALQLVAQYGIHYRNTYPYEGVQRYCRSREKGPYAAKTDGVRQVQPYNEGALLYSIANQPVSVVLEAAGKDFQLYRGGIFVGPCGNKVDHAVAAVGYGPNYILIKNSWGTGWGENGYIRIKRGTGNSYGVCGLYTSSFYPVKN
- Assay Method Text: Inhibition of papain, incubation method
- Format: biochemical
- Study Conditions: second-order rate constant; NI = no inhibition

>  <Compound>
CCC(NC(=O)OC(C)(C)C)C(=O)NN(CCc1ccccc1)C(=O)[C@@H]1O[C@H]1CCc1ccccc1 (relative stereo) [Boc-Abu-AHph-trans-EP-CH2CH2Ph]

>  <kobs/[I] papain>
0.2 M⁻¹ s⁻¹

$$$$
>  <Compound>
CCOC(=O)[C@@H]1O[C@H]1C(=O)N(CCc1ccccc1)NC(=O)[C@H](CC(C)C)NC(=O)OCc1ccccc1

>  <kobs/[I] papain>
2.16 M⁻¹ s⁻¹

$$$$
>  <Compound>
CCOC(=O)[C@@H]1O[C@H]1C(=O)N(CC(C)C)NC(=O)C(CC(C)C)NC(=O)OCc1ccccc1 (some centres unmarked)

>  <kobs/[I] papain>
6.70 M⁻¹ s⁻¹

$$$$
>  <Compound>
CCOC(=O)[C@@H]1O[C@H]1C(=O)N(CC(C)C)NC(=O)[C@H](Cc1ccccc1)NC(=O)OCc1ccccc1 (relative stereo) [Cbz-Phe-ALeu-trans-EP-COOEt]

>  <kobs/[I] papain>
0.91 M⁻¹ s⁻¹

$$$$
>  <Compound>
O=C(N[C@@H](Cc1ccccc1)C(=O)NN(Cc1ccccc1)C(=O)[C@@H]1O[C@H]1CCc1ccccc1)OCc1ccccc1 (relative stereo) [Cbz-Phe-APhe-trans-EP-CH2CH2Ph]

>  <kobs/[I] papain>
0.5 M⁻¹ s⁻¹

$$$$
>  <Compound>
CCCCC(NC(=O)OC(C)(C)C)C(=O)NN(CCc1ccccc1)C(=O)C1OC1CCc1ccccc1 (stereo not drawn) [Boc-Nle-AHph-trans-EP-CH2CH2Ph, Boc-Nle-AHph-(trans)-EP-CH2CH2Ph]

>  <kobs/[I] papain>
0.5 M⁻¹ s⁻¹

$$$$
>  <Compound>
CCN(NC(=O)[C@H](CC(C)C)NC(=O)OCc1ccccc1)C(=O)[C@@H]1O[C@H]1C(=O)O (relative stereo) [Cbz-Leu-AAbu-trans-EP-COOH]

>  <kobs/[I] papain>
1.47 M⁻¹ s⁻¹

$$$$
>  <Compound>
CCOC(=O)[C@@H]1O[C@H]1C(=O)N(CCc1ccccc1)NC(=O)OCc1ccccc1 (relative stereo) [Cbz-AHph-trans-EP-COOEt]

>  <kobs/[I] papain>
18.8 M⁻¹ s⁻¹

$$$$
>  <Compound>
CCOC(=O)[C@@H]1O[C@H]1C(=O)N(CC(C)C)NC(=O)[C@H](CC(C)C)NC(=O)OCc1ccccc1 (relative stereo) [Cbz-Leu-ALeu-trans-EP-COOEt]

>  <kobs/[I] papain>
6.37 M⁻¹ s⁻¹

$$$$
>  <Compound>
CCOC(=O)[C@H]1O[C@@H]1C(=O)N(CC(C)C)NC(=O)C(CC(C)C)NC(=O)OCc1ccccc1 (some centres unmarked)

>  <kobs/[I] papain>
10.53 M⁻¹ s⁻¹

$$$$
>  <Compound>
CCOC(=O)[C@@H]1O[C@H]1C(=O)N(CC(C)C)NC(=O)C(Cc1ccc2ccccc2c1)NC(=O)CCC(=O)O (relative stereo) [Suc-Np2-ALeu-trans-EP-COOEt]

>  <kobs/[I] papain>
1.39 M⁻¹ s⁻¹

$$$$

---

k2 caspase-1 by entry:
- Target Desc: caspase-1 (Homo sapiens, UniProt P29466, D381E)
- Construct: His tag (N); made in house; host or cells: E. coli
- Sequence (P29466 120-297 limits assumed): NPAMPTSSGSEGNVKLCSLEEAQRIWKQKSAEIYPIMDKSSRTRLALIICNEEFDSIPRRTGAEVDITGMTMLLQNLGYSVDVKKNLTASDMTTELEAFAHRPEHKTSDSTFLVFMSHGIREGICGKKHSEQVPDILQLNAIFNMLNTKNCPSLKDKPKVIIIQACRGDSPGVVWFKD
- Sequence (P29466 317-404 D381E limits assumed): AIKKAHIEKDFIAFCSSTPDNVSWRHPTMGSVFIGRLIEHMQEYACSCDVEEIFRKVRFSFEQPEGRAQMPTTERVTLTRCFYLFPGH
- Assay Method Text: Caspase-1 progress curve assay
- Type: biochemical
- Study Conditions: D381E variant, substrate Ac-YVAD-AMC, 30° C.
Measure: k2 caspase-1 (M⁻¹ s⁻¹)

>  <Compound>
CC(C)[C@H](NC(=O)CCc1ccccc1)C(=O)N[C@@H](C)C(=O)NN(CC(=O)O)C(=O)[C@@H]1O[C@H]1C(=O)OCc1ccccc1 [23d (R,R)]

>  <Target Desc>
caspase-1 (Homo sapiens, UniProt P29466, D381E)

>  <Measure>
k2 caspase-1

>  <Measurement>
1860

$$$$
>  <Compound>
CC[C@H](C)[C@H](NC(=O)OCc1ccccc1)C(=O)N[C@@H](CCC(=O)O)C(=O)N[C@H](C(=O)NN(CC(=O)O)C(=O)[C@@H]1O[C@H]1C(=O)OCc1ccccc1)[C@@H](C)O [27d (R,R)]

>  <Target Desc>
caspase-1 (Homo sapiens, UniProt P29466, D381E)

>  <Measure>
k2 caspase-1

>  <Measurement>
13000

$$$$
>  <Compound>
CC[C@H](C)[C@H](NC(=O)OCc1ccccc1)C(=O)N[C@@H](CCC(=O)O)C(=O)N[C@H](C(=O)NN(CC(=O)O)C(=O)[C@@H]1O[C@H]1C(=O)NCc1ccccc1)[C@@H](C)O [27g]

>  <Target Desc>
caspase-1 (Homo sapiens, UniProt P29466, D381E)

>  <Measure>
k2 caspase-1

>  <Measurement>
18140

$$$$
